# protocol text: self-splicing fitness, log relative to wild type (ln ratio); higher = more splicing; Tetrahymena group I intron in knt gene, E. coli kanamycin selection, DiMSum; sequences stand for … in CUCUCU…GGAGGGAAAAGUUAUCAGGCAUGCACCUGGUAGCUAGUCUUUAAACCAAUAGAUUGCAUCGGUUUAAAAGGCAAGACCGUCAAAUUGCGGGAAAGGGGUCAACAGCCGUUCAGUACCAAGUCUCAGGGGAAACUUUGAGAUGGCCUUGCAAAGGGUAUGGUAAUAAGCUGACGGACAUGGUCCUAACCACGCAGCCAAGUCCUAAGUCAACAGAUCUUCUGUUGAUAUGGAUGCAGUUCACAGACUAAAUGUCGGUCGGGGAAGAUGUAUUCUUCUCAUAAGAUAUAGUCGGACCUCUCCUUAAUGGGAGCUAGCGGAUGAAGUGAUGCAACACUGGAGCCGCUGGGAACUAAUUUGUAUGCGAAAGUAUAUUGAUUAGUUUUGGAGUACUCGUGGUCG;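 further: selection with 25 µg/mL kanamycin versus none on LB agar overnight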
# conditions used: 37 °C
Label yes (1) when self-splicing fitness (ln) is at or above -0.8; otherwise label no (0).

Could you verify whether the entry `UAGAAGCAAUAUUACGAGCA` shows self-splicing fitness (ln) of no less than -0.8?
yes (1)

Could you do the same for `GAAUAGCAAUAUUACGAUUC` , please?
no (0)

What would you report for `CCGUAGCAAUAUUACGCGCU` ?
no (0)

Same lookup for `AGGUAGCAAUAUUACGUGUC` , please.
no (0)

Can you check `AACCAGCAAUAUUACGACCU` next?
yes (1)

Now the sequence `CAUUAGCAAUAUUACGCUGC`
no (0)

And then `UCUAAGCAAUAUUACGGUUG` , what is it?
no (0)

Entry to check: `CAUUAGCAAUAUUACGUUUU`
no (0)

Entry to check: `CAGAAGCAAUAUUACGUGUU`
no (0)

Also need `GGCGAGCAAUAUUACGGAUA` , thanks.
no (0)

Queued: `GGGCAGCAAUAUUACGAAAU`
no (0)

Record: `UCAAAGCAAUAUUACGGCCG`
yes (1)

Try `CAUAAGCAAUAUUACGAGCG` next.
yes (1)

Another sequence: `ACCAAGCAAUAUUACGAUCG`
yes (1)

Field entry: `UUAUAGCAAUAUUACGACCU`
yes (1)

`UCGUAGCAAUAUUACGGGAC` , same question.
no (0)

What do you have for `UCCUAGCAAUAUUACGGAUG` ?
no (0)

Would you mind doing `CCGUAGCAAUAUUACGUAGA` as well?
no (0)

Check `CAUAAGCAAUAUUACGCUCG` too.
yes (1)

Thanks! And `GCGUAGCAAUAUUACGAGGG` ?
no (0)

Try this sequence next: `GUCUAGCAAUAUUACGCAAA`
yes (1)

Also, `AAGUAGCAAUAUUACGGCUG` please.
yes (1)

Thanks! And `CAUUAGCAAUAUUACGAAAU` ?
no (0)

Param item: `GGUCAGCAAUAUUACGAUGU`
yes (1)

// same read-out, input: `UGCGAGCAAUAUUACGUGAU`
no (0)

Also need `UUAGAGCAAUAUUACGCUAU` , thanks.
no (0)

Could you do the same for `GUAUAGCAAUAUUACGUGGC` , please?
no (0)

Same question, `GGAGAGCAAUAUUACGUUCC` this time
no (0)

Repeat with `CAAUAGCAAUAUUACGCCGA`
no (0)

How about `GGCUAGCAAUAUUACGUCGC` ?
yes (1)

Moving on to the next sequence: `GCGUAGCAAUAUUACGUAUU`
no (0)

Here is the next sequence: `AAUCAGCAAUAUUACGGCCC`
yes (1)

Similarly, `GUUGAGCAAUAUUACGAUUC` ?
yes (1)

====

Kindly supply the reported self-splicing fitness (ln) values for the records listed here.
# protocol text: self-splicing fitness, log relative to wild type (ln ratio); higher = more splicing; Tetrahymena group I intron in knt gene, E. coli kanamycin selection, DiMSum; sequences stand for … in CUCUCU…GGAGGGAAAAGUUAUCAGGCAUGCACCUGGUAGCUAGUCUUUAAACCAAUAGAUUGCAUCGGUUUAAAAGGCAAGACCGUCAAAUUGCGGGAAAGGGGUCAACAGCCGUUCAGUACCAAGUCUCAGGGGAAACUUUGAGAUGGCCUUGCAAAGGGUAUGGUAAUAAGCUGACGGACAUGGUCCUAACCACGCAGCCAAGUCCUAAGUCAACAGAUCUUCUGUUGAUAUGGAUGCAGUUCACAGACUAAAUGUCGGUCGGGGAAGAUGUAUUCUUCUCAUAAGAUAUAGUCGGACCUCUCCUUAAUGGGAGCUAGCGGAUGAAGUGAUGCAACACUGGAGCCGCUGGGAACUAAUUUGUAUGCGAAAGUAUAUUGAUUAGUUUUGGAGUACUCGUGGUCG
# conditions used: 37 °C
Lab note: jot the number down without any unit.

Could you share which self-splicing fitness (ln) value was measured for `UAAUAGCAAUAUUACGCUUG` ?
-0.621

And what about the sequence `CUAGAGCAAUAUUACGCAGU` ?
-3.17

What about `GCGCAGCAAUAUUACGCCAA` ?
-1.42

Again, but for `UAAUAGCAAUAUUACGCAUU`
-2.15

Next up: `AGAUAGCAAUAUUACGCCGU`
-0.953

Again, but for `CAUUAGCAAUAUUACGUUAA`
-1.91

Then what about the sequence `CGGCAGCAAUAUUACGAUCU` ?
0.148

Now the same for `ACAGAGCAAUAUUACGGUUA`
-3.05

Now the sequence `CAGAAGCAAUAUUACGACGC`
-1.28

Next record, please: `CGCAAGCAAUAUUACGAACU`
-0.369

Field entry: `CCUGAGCAAUAUUACGUUCA`
-2.59

Now this one: `CAAAAGCAAUAUUACGCAGC`
-2.36

Also, `CCACAGCAAUAUUACGAUGC` please.
-2.66

Also `GCCCAGCAAUAUUACGGGUA` ?
-0.511

Try this sequence next: `UGACAGCAAUAUUACGCGAA`
-0.476

Also need `GAUCAGCAAUAUUACGGUUU` , thanks.
-0.154

====

# protocol text: self-splicing fitness, log relative to wild type (ln ratio); higher = more splicing; Tetrahymena group I intron in knt gene, E. coli kanamycin selection, DiMSum; sequences stand for … in CUCUCU…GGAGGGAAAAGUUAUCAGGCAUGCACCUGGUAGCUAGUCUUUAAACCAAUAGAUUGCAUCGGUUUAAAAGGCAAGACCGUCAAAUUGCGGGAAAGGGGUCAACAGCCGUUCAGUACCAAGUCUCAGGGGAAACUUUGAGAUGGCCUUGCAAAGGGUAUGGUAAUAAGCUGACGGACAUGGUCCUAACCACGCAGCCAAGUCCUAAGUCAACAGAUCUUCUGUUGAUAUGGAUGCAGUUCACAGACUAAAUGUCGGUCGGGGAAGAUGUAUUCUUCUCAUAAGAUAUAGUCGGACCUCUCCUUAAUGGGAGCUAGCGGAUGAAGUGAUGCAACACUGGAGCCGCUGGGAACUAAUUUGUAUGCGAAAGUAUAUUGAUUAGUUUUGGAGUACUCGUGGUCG
# conditions used: 37 °C
observation type: self-splicing fitness (ln)
Output spec: single numeric token, no unit.

I am curious: what self-splicing fitness (ln) value has been reported for `GCCUAGCAAUAUUACGCCAC` ?
-2.2

Now the same for `CAUAAGCAAUAUUACGAGGC`
-2.24

Can you check `CCCCAGCAAUAUUACGCUCC` next?
-2.91

Again, but for `GUAUAGCAAUAUUACGAGUG`
-2.47

Now give it for `GAUAAGCAAUAUUACGUCCG` too.
-2.1

// same read-out, input: `GAGAAGCAAUAUUACGGGGU`
-3.13

Can you handle `UUGCAGCAAUAUUACGGGCU` next?
-1.17

Continue with `CAGGAGCAAUAUUACGUGCG`
-0.807

What do you have for `AUCUAGCAAUAUUACGACGA` ?
-0.44

Also check `UUCAAGCAAUAUUACGAACA`
-0.752

Likewise for `AAUCAGCAAUAUUACGAUUG` ?
-0.631

And the next one, `UCUUAGCAAUAUUACGAACG` ?
-1

Same question for `UUAGAGCAAUAUUACGUCAU` please.
-2.25

Entry to check: `AGUAAGCAAUAUUACGGUCA`
0.0737

And the next one, `UGGAAGCAAUAUUACGCCGG` ?
-0.109

Now the same for `AACAAGCAAUAUUACGGGCC`
0.104

Repeat with `AUUAAGCAAUAUUACGGAAA`
-1.77

Ok, now `AGACAGCAAUAUUACGGCGG`
-0.609

Would you kindly repeat that for `GUACAGCAAUAUUACGGAAU` ?
-1.46

Please answer likewise for `GUACAGCAAUAUUACGUCAG`
-2.99

// same read-out, input: `CGGCAGCAAUAUUACGUACU`
-0.714

Then this sequence: `GUUAAGCAAUAUUACGCUAA`
-1.54

Proceed to `AGCCAGCAAUAUUACGAGAA`
-1.42

Follow-up entry: `UAGUAGCAAUAUUACGGGUG`
-0.773

Next record, please: `ACCUAGCAAUAUUACGCGUG`
-0.11

Repeat with `GUAGAGCAAUAUUACGGAGG`
-1.69

Next record, please: `CAGAAGCAAUAUUACGGGAG`
-0.856

Next: `CACUAGCAAUAUUACGGCCG`
-0.0313

Follow-up entry: `CGCGAGCAAUAUUACGCUAA`
-2.55

Another sequence to look at: `AGGUAGCAAUAUUACGCACG`
-0.31

What do you get for `UCAGAGCAAUAUUACGCAGA` ?
-1.47

Please give the result for `AACUAGCAAUAUUACGGACA` too.
-0.48

What would you report for `GACGAGCAAUAUUACGGAAC` ?
-2.43

Repeat with `AUCCAGCAAUAUUACGAGCA`
-1.1

Hey, just so you know, these numbers are from the supplement of paper PMC7877785.
